System: K-562 leukemia
experimentNotes: NCI tumour cell line growth inhibition, 48 h
Exercise: for every item that follows, state its recorded TGI.

Examples with answers:
COc1cc(/C=C/C=C2\CCC/C(=C\C=C\c3ccc(O)c(OC)c3)C2=O)ccc1O :: > 100 µM
O=[N+]([O-])c1ccc(/C=N\Nc2ccc([N+](=O)[O-])cn2)cc1 :: > 100 µM

Lab book: TGI of CN(C(=O)[C@@H](NC(=O)OC(C)(C)C)c1ccccc1)[C@H]1CCCC[C@@H]1N1CCCC1 noted as > 100 µM

====

Tested on: MOLT-4 leukemia
experimentNotes: NCI tumour cell line growth inhibition, 48 h
assayEndpoint: TGI

CCN(CC)CCSc1n[nH]c(-c2c[nH]c3nc(C)ccc3c2=O)n1 :: > 100 µM
CCOc1ncn(-c2ccc(NC(=S)Nc3cnccn3)cc2)n1 :: > 10 µM
CN/C=C(/c1ccc(OC)cc1)C(O)c1ccc(OC)c(OC)c1 (stereo not given) :: > 100 µM

Dear colleague, could you please provide TGI for the compounds listed below?
1. CCN(CC)C(=S)SC(=S)N(CC)CC
2. COc1cc[c]([Sb]([Br])([CH]=C(C)C)([CH]=C(C)C)[CH]=C(C)C)cc1

[out]
1: > 72.8 µM; 2: > 100 µM

====

Tested on: NCI-H460 lung
experimentNotes: NCI tumour cell line growth inhibition, 48 h
Field: TGI. Provide a value for each of the compounds that follow.

COC(=O)/C=C\[C@@H]1[C@H](C)N1S(=O)(=O)c1ccc(C)cc1 (stereo partly drawn) :: > 100 µM
CC(C)Oc1c(C2(c3ccccc3O)SCCCS2)c(=O)c1=O :: > 100 µM

Turning to the following compound.
Please fill in: TGI reported for N#C/C(=C\c1ccc(F)cc1)c1nc2ccccc2c(=O)[nH]1 = > 100 µM

====

System: TK-10 renal
experimentNotes: NCI tumour cell line growth inhibition, 48 h
assayEndpoint: TGI

Record excerpt, results attached:
CC1C(/C=C/c2ccoc2)ON2CCCC12 (stereo unspecified) :: > 100 µM
CC(NC1=NCCO1)c1cccs1 (stereo unspecified) :: > 100 µM
Cc1ccc(S(=O)(=O)NC(=O)NC(C(=O)O)C(C)O)cc1 (stereo unspecified) :: > 100 µM

For every item in the list below, what is its measured TGI?
1. CC(=O)/C(N=Nc1ccc(-n2c(C)nc3ccc(Br)cc3c2=O)cc1)=C(/C)O
2. Cc1cc(Cl)ccc1NC(=O)C(=O)Cc1ccc([N+](=O)[O-])c([N+](=O)[O-])c1CC(=O)C(=O)Nc1ccc(Cl)cc1C
3. COc1ccc([C@@H]2CC(=O)NCCCNCCCCNCCCN2)cc1

[out]
1: > 100 µM; 2: > 100 µM; 3: > 100 µM

// batch mode: one TGI value per listed entry
1. Cc1cc(C(=O)N[C@@H](CCC(=O)O)C(=O)O)sc1CC[C@@H]1CNc2nc(N)[nH]c(=O)c2C1
2. O=C1OCC2=C1C(c1cccc(C(F)(F)F)c1)c1cc3c(cc1N2CCO)OCO3 (stereo unspecified)
3. O=C(Nc1ccc(Cl)cc1F)c1cc(F)ccc1O
4. OC1CSCCCSCCSCCCSC1
5. CN(C)CCNC(=O)c1cccc2ccc(-c3cccnc3)nc12

[out]
1. > 100 µM
2. > 50 µM
3. 23.1 µM
4. > 100 µM
5. 7.05 µM

Provide each entry's TGI from the list below.
1. C=C1C(=O)OC2/C=C(\C)C(=O)CC3OC(C)(C)OC3(C)CC(OC(=O)/C(C)=C/C)C12 (stereo unspecified)
2. [C-]#[O+].[C-]#[O+].[Ir].[O-]c1ccc2ccccc2c1N=Nc1ccccc1
3. CCC(C(=O)c1cccs1)C(O)(C(F)(F)F)C(F)(F)F (stereo unspecified)
4. N#CC(c1ccccc1)N(CCc1ccccc1)C(=O)c1ccccc1 (stereo unspecified)
5. c1ccc(CCCC2Sc3cccc4cccc(c34)S2)cc1
6. CCN1/C(=C/C=C/C=C/c2sc3ccccc3[n+]2CC)Sc2ccccc21
7. CC(C)[C@](O)(C(=O)OCC1=CC[N+]2([O-])CC[C@@H](O)[C@@H]12)[C@H](C)O (stereo partly specified)
8. O=C1c2ccccc2C(=O)c2c(NC(=O)C(Cl)CCl)cccc21 (stereo unspecified)

[out]
1: 27.9 µM; 2: 17.3 µM; 3: > 100 µM; 4: > 100 µM; 5: > 100 µM; 6: 3.97 µM; 7: > 10000 µM; 8: 18.1 µM

Lab note: each molecule below needs its TGI filled in.
1. Cc1ccc(Nc2[nH]c(C(=O)c3ccc(Cl)cc3)c(N)c2C(=S)Nc2ccccc2)nc1
2. NC(=S)N/N=C1\C(=O)N(CCc2ccccc2)C(=O)C1C(=O)NCCc1ccccc1 (stereo unspecified)

[out]
> 100 µM
> 100 µM

From: PubChem BioAssay (NCI)
